Source: ChEMBL document CHEMBL1926660

target: 5-hydroxytryptamine receptor 7 (Homo sapiens); test: Displacement of […] from human 5-HT7 receptor expressed in HEK293 cells at 10 uM; format: cell-based
Reported inhibition values for the following compounds.
measured endpoint: inhibition (%)

                             smiles_notation  measured_endpoint  unit_spec  meas_value
 0  CC(C)c1cc(CNCCN2CCN(C(=O)c3cc(Cl)cc(Cl)c3)CC2)on1         inhibition          %        -0.2
 1  CC(C)(C)CCNCCN1CCN(C(=O)c2cc(Cl)cc(Cl)c2)CC1         inhibition          %        -0.6
 2  CC(C)(C)CCNCCN1CCN(C(=O)c2cc(C(F)(F)F)cc(C(F)(F)F)c2)CC1         inhibition          %        -0.3
 3  O=C(c1ccc(Cl)cc1)N1CCN(CCNCCCc2nc3ccccc3[nH]2)CC1         inhibition          %        36.8
 4  CC(C)c1cc(CNCCN2CCN(C(=O)c3ccc(Cl)cc3)CC2)on1         inhibition          %        93.6
 5  O=C(c1cc(Cl)cc(Cl)c1)N1CCN(CCNCCCc2nc3ccccc3[nH]2)CC1         inhibition          %        62.7
 6  O=C(c1ccc(Cl)c(Cl)c1)N1CCN(CCNCCCc2nc3ccccc3[nH]2)CC1         inhibition          %        56.2
 7  CC(C)(C)CCNCCN1CCN(C(=O)c2ccc(Cl)cc2)CC1         inhibition          %        -0.6
 8  CC(C)c1cc(CNCCN2CCN(C(=O)c3cc(C(F)(F)F)cc(C(F)(F)F)c3)CC2)on1         inhibition          %        -0.3
 9  CC(C)c1cc(CNCCN2CCN(C(=O)c3ccc(Cl)c(Cl)c3)CC2)on1         inhibition          %        16.1
10  CC(C)(C)CCNCCN1CCN(C(=O)c2ccc(Cl)c(Cl)c2)CC1         inhibition          %           2
11  O=C(c1cc(C(F)(F)F)cc(C(F)(F)F)c1)N1CCN(CCNCCCc2nc3ccccc3[nH]2)CC1         inhibition          %        45.4

---

Parameter: inhibition. Scope: all listed entries.
target: UniProtKB P08908; test: Displacement of [3H]LSD from human 5-HT1A receptor expressed in CHO-K1 cells at 10 uM; assay type: cell-based
Sequence (P08908 whole entry): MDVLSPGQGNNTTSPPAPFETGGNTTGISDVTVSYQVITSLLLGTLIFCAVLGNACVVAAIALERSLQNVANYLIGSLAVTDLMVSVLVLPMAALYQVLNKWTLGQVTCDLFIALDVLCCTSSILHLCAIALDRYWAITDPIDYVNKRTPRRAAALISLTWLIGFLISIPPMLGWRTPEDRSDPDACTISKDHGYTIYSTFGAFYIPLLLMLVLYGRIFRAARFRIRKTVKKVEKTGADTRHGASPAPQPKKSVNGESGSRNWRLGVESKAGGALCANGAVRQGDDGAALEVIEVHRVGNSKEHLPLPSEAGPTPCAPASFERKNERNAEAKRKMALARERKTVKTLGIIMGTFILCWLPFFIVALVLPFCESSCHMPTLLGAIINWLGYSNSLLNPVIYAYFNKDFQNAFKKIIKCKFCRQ
measured endpoint: inhibition (%)

In [3]: df
Out[3]:
                            smiles_notation  measured_endpoint  unit_spec  meas_value
0  O=C(c1ccc(Cl)cc1)N1CCN(CCNCCCc2nc3ccccc3[nH]2)CC1         inhibition          %        47.5
1  O=C(c1cc(C(F)(F)F)cc(C(F)(F)F)c1)N1CCN(CCNCCCc2nc3ccccc3[nH]2)CC1         inhibition          %        87.7
2  CC(C)c1cc(CNCCN2CCN(C(=O)c3ccc(Cl)cc3)CC2)on1         inhibition          %        56.5
3  CC(C)(C)CCNCCN1CCN(C(=O)c2ccc(Cl)c(Cl)c2)CC1         inhibition          %        65.2
